Hey, just so you know, these numbers are from PubChem BioAssay.

test: doxorubicin toxicity protection in MRP-1 cells – H69AR cells, CellTiter-Glo, duplicate, MRP-1 activator project, pilot screen (AID 807); conditions: H69AR viability with doxorubicin, CellTiter-Glo luminescence; at 10 µM; stronger effect = higher value;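 also: compound pretreatment 18-22 h then 72 h combined with doxorubicin; 0% = doxorubicin alone and 100% = vehicle without doxorubicin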
I'd be grateful if you could share measured viability increase for these entries.
Answers are plain numbers, in %.

Sample records with viability increase:
compound | viability increase / %
CCCCOc1ccc(-c2ncc(Cl)cn2)cc1 | 3.52
Cc1ccc2c(c1)c(C)c(C)n2CC(O)CN1CCCCC1C (stereo not drawn) | -4.02
CCOC(=O)c1c(C)c(C(=O)O)n(C)c1C | 0.64
CCOC(=O)Cc1c(C)nc2c(-c3ccccc3)c[nH]n2c1=O | -5.95
Cc1n[nH]c(C)c1S(=O)(=O)N(CC(=O)N1CCc2ccccc21)c1ccc(C(C)C)cc1 | -7.59

Provide the reported viability increase of each entry below, same order.
1. Cc1onc(-c2c(Cl)cccc2Cl)c1C(=O)NCC1CCCO1 (stereo not drawn)
2. COc1ccc(OCc2nnc3n2N=C(c2ccc(C)cc2)CS3)cc1
3. Nc1nc2n(n1)C(c1c(F)cccc1Cl)CC(c1ccc(F)cc1)N2 (stereo not drawn)
4. Cc1noc(/C=C/N(C)C)c1S(=O)(=O)N1CCCC(C(=O)NCCC2=CCCCC2)C1 (stereo not drawn)

## Output
1. -1.12
2. 2.3
3. -2.4
4. 2.75

Parameter requested: viability increase. Apply to each item below.
1. O=C(CSc1ncnc2c1oc1ccccc12)Nc1cccc(C(F)(F)F)c1
2. Cn1c(=O)c2c(nc(SCCCC#N)n2Cc2c(F)cccc2Cl)n(C)c1=O
3. CCOC(=O)N1CCN(CC(O)c2ccc3cc[nH]c3c2)CC1 (stereo not drawn)
4. CCOC(=O)N1CCN(C(=O)c2cnn(-c3ccccc3)c2NC(=O)c2ccccc2F)CC1
5. Cn1c(Cn2c(=O)sc3ccccc32)nnc1SCC(=O)Nc1ccc(F)cc1
6. O=C(CS(=O)(=O)Cc1ccccc1)Nc1nc2ccccc2s1
7. CCOc1ccc(N(CC(=O)NC2CCCCC2)S(=O)(=O)c2c(C)noc2C)cc1
8. O=C(Nc1ccncc1)c1ccccc1F

## Output
1: 1.15; 2: -4.16; 3: -3.2; 4: -1.55; 5: -0.7; 6: -0.52; 7: -1.54; 8: -3.04

Return reported viability increase values for all items listed beneath this line.
1. O=C1C(=C(O)c2ccccc2)C(=O)c2ccccc21
2. CC(OC(=O)c1cc[n+]([O-])cc1)C(=O)Nc1ccc(Cl)cn1 (stereo not drawn)
3. CCN(C1CCCCC1)S(=O)(=O)c1ccc(S(=O)(=O)N2CCN(CCC#N)CC2)cc1

## Output
[-3.04, -1.44, -3.47]
